Measured values drawn from ChEMBL document CHEMBL1145498 for this set.

The reader will find ΔTm measurements below, all made with Serine/threonine-protein kinase 26 (Homo sapiens) (UniProt Q9P289).
Sequence (Q9P289 2-416 limits assumed): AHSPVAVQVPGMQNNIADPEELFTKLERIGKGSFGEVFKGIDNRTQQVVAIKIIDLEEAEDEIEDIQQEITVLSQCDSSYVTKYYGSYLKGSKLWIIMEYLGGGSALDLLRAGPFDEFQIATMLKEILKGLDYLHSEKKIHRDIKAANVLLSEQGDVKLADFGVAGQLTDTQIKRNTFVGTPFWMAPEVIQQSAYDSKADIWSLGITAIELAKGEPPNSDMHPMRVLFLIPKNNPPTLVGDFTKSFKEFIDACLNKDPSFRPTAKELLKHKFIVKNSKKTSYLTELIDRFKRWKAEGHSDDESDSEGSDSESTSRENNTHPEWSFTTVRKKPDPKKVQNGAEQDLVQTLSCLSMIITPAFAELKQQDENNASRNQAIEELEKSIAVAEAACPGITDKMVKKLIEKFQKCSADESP
Please provide the amount together with its unit, number first.

Some entries whose results are on file:
>  <COMPOUND>
COc1ccc(Cl)cc1NC(=O)Nc1cc(C)nc2ccccc12

>  <DATA_VALUE>
1.1 °C

$$$$
>  <COMPOUND>
C[C@@H](N)[C@H]1CC[C@H](C(=O)Nc2ccncc2)CC1

>  <DATA_VALUE>
0.2 °C

$$$$
>  <COMPOUND>
Cc1ccc(NC(=O)c2ccc(CN3CCN(C)CC3)cc2)cc1Nc1nccc(-c2cccnc2)n1

>  <DATA_VALUE>
1 °C

$$$$
>  <COMPOUND>
CC(C)(C)c1nc2c3ccc(F)cc3c3c(=O)[nH]ccc3c2[nH]1

>  <DATA_VALUE>
4.1 °C

$$$$

# next compound below
[Q] I am curious: what ΔTm value has been reported for COc1ccc2c(c1)/C(=C/c1cnc[nH]1)C(=O)N2 [SU-9516] ?
[A] 4.2 °C

---

TARGET: Serine/threonine-protein kinase VRK1 (Homo sapiens) (UniProt Q99986)
Sequence (Q99986 whole entry): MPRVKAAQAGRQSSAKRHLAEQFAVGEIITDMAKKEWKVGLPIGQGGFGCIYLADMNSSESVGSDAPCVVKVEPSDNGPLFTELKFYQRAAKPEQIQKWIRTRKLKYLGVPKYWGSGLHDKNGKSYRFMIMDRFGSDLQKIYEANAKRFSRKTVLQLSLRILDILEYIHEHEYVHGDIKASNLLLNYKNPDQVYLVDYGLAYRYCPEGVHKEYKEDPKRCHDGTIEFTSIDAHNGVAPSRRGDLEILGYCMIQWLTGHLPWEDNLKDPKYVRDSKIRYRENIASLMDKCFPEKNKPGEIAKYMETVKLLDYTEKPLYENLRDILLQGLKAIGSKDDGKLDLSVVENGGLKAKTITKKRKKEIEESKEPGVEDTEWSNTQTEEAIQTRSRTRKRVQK
ENDPOINT_LABEL: ΔTm (°C)
Your answer should be a plain number; it is taken to be in °C.

Sample records with ΔTm:
>  <COMPOUND>
O=C1NC(=O)C(c2c[nH]c3ccccc23)=C1c1c[nH]c2ccccc12

>  <ENDPOINT_LABEL>
ΔTm

>  <ENDPOINT_UNIT>
°C

>  <DATA_VALUE>
0.8

$$$$
>  <COMPOUND>
Cc1ccc(NC(=O)c2cccc(N(C)C)c2)cc1NC(=O)c1ccc(O)cc1

>  <ENDPOINT_LABEL>
ΔTm

>  <ENDPOINT_UNIT>
°C

>  <DATA_VALUE>
-0.3

$$$$
>  <COMPOUND>
COc1ccc(S(=O)(=O)N(CCO)c2ccccc2CN(C)C/C=C/c2ccc(Cl)cc2)cc1

>  <ENDPOINT_LABEL>
ΔTm

>  <ENDPOINT_UNIT>
°C

>  <DATA_VALUE>
0

$$$$
>  <COMPOUND>
Cc1c2ccncc2c(C)c2c1[nH]c1ccccc12

>  <ENDPOINT_LABEL>
ΔTm

>  <ENDPOINT_UNIT>
°C

>  <DATA_VALUE>
0.4

$$$$
>  <COMPOUND>
Cl.Cn1cc(C2=C(c3ccc4cc5n(c4c3)CCC(CN)C5)C(=O)NC2=O)c2ccccc21 (stereo not given)

>  <ENDPOINT_LABEL>
ΔTm

>  <ENDPOINT_UNIT>
°C

>  <DATA_VALUE>
0.8

$$$$

[Q] What measured ΔTm goes with "O=c1c(-c2ccc(F)cc2)c(-c2ccncc2)[nH]n1-c1ccc(Cl)cc1" ?
[A] 0.8

[Q] Can you handle "Brc1c(Br)c(Br)c2[nH]nnc2c1Br" next?
[A] -1.5

[Q] // next record "O=C(O)Cc1ccc(O)c([N+](=O)[O-])c1"
[A] 0.4

[Q] Input "O=C1Nc2ccccc2/C1=C1/Nc2ccccc2/C1=N\O"
[A] 1.7

[Q] Next: "COc1cccc(-c2cc(=O)c3ccccc3o2)c1N"
[A] 0.2

---

TARGET: DNA topoisomerase 2-alpha (Homo sapiens)
Sequence (P11388 whole entry): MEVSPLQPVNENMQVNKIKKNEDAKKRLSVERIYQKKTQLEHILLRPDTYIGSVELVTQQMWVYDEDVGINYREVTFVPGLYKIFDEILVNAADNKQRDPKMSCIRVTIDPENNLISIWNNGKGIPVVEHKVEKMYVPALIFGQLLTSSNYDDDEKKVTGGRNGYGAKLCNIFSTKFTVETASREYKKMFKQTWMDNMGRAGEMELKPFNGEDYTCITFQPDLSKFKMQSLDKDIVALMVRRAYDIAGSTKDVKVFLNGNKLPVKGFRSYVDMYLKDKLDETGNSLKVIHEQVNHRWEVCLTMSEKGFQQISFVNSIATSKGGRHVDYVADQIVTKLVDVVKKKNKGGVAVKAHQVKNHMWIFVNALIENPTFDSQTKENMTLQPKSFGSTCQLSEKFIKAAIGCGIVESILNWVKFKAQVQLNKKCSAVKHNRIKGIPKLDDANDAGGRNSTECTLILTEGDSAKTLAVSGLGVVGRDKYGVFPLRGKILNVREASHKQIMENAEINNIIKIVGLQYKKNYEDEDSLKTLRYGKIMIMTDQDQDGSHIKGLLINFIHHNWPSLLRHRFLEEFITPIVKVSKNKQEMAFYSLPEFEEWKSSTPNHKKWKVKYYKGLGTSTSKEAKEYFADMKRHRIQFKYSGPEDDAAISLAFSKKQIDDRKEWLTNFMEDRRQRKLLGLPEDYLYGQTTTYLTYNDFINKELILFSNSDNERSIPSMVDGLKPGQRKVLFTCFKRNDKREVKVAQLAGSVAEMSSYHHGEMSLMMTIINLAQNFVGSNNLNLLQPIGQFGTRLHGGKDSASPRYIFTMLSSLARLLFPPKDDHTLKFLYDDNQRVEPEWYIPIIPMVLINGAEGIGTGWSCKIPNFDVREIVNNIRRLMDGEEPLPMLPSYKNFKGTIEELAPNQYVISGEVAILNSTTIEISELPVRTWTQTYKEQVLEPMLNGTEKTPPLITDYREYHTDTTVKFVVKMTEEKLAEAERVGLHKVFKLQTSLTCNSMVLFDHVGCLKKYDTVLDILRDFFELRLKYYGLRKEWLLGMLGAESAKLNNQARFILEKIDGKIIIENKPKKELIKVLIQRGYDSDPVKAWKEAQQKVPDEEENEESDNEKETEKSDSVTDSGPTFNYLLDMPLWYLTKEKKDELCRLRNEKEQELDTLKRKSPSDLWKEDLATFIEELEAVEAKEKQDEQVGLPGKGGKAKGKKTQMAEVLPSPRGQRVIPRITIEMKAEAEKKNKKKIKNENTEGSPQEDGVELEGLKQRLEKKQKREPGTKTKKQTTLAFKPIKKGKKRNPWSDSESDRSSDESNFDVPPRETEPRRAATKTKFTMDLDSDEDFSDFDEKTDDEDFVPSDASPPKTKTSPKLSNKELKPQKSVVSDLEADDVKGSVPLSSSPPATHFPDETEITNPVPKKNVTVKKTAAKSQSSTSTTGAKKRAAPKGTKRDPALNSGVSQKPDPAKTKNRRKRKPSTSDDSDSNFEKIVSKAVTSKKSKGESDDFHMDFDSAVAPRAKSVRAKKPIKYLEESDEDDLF
ASSAY_SUMMARY: Inhibition of topoisomerase 2
ENDPOINT_LABEL: IC50

[Q] For the molecule "Cc1c2ccncc2c(C)c2c1[nH]c1ccccc12" , what IC50 is on record?
[A] 3.3 µM
